B1: tRNA (parent)
chain: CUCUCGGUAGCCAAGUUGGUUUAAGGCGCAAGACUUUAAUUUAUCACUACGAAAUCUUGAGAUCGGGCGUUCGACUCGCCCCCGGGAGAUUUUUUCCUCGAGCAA

variants of: B1; test: nonsense suppression (GFP-seq) (ratio to wild type); higher = more function; SUP4oc tRNA, yeast GFP reporter sort-seq
Fewer inactive variants are shown than the library holds.
Label scheme for nonsense suppression: lower than 0.2 is criterion not met, 0.2 and above is criterion met.

Hi, just wondering whether CUCUCGGUAGCCAAUUUAGUUUAAGGCGCAAGACUUUAAUUUAUCACUACGAAAUCUCGAGAUCGGGCGUUCGACUCGCCCCCGUGAGAUUUUUUCCUCGAGCAA [G15U G18A U58C G85U] shows nonsense suppression of 0.2 or higher.
criterion not met

Say whether CUCUCGGUAGCCAAGUUGGUUUAAGGCGCAAGACUUUAAUUUAUCACUACGAACUCUUGAGAUCGGGCGUUCGACUCGCGCCCGGGAGAUUUUUUCCUCGAGCAA [A54C C80G] shows nonsense suppression of 0.2 or more.
criterion not met
